EXPERIMENT_NOTES: Cmax in Wistar rat at 5 mg/kg, po administered as triple or quadruple dosing measured after 1 to 24 hrs by reverse-phase HPLC method
Assay type: ADME, organism-based
Parameters: dose 5 mg/kg, route oral
EXPERIMENTAL_PARAMETERS: in vivo
OBSERVATION_TYPE: Cmax (µM)

Below, 3 compounds whose answers are already recorded.
INSERT INTO assay_data (structure_smiles_string, readout_number) VALUES
  ('O=C(Nc1ccc(Cl)cc1C(=O)O)c1ccc(Oc2ccccc2)cc1', 64.2),
  ('O=C(Nc1ccc(Cl)cc1C(=O)O)c1cccc(C2=CCCCC2)c1', 5.2),
  ('O=C(Nc1ccc(Cl)cc1C(=O)O)c1cccc(-c2ccccc2)c1', 17);

1 = O=C(Nc1ccc(Cl)cc1C(=O)O)c1ccc(C(=O)c2ccccc2)cc1
2 = O=C(Nc1ccc(Cl)cc1C(=O)O)c1ccc(C2CCCCC2)cc1
Identify the entry with the smaller Cmax: 1 or 2 . Pick one and reply with its label.
2

Origin of measurements: ChEMBL document CHEMBL4184220
